- target_desc: T1, XPF-Δnuc (HhH2 domain) (Sulfolobus solfataricus P2, UniProt Q7LXL5 =M+148-233, internal_change)
- T1 sequence: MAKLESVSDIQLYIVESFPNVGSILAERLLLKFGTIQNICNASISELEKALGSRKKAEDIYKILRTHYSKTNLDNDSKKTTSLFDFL
- measurement_description: FRET
assay_endpoint: pKd
pKd here: minus log base 10 of the concentration, concentration in moles per litre.

Please look up its pKd: 3' flap, three vectors (global fit) (structured_DNA, dye positions as in Flap-12, Flap-13 and Flap-23) DNA 1: AGCCCGACAGCAGTCAGAGCTTGCTAGGACGGACGGT DNA 2: ACCGTCCGTCCTAGCAAGCATTTTTTT DNA 3: TCTGACTGCTGTCGGGCT
5.10
